- Tested on: KM12 colon
- METHOD NOTES: NCI tumour cell line growth inhibition, 48 h
READOUT NAME: TGI (µM)
Numbers only, in µM.

Some solved entries appear below for comparison.
Query: Reported TGI, molecule CCCCCC(=O)OCC1(CO)C/C(=C/CC(C(C)C)C(C)C)C(=O)O1 (stereo not given) : ____
Reply: 37.4

Query: Now the same for "COc1ccc(OC)c(/C=C/C(=O)c2ccc(SC)cc2)c1"
Reply: 27.7

New cases:
Query: Reported TGI, molecule COc1ccc(C(=O)C(CN(C)C)c2ccccc2)cc1 (stereo not given) : ____
Reply: 13.6

* * *

- System: MCF7 breast
- METHOD NOTES: NCI tumour cell line growth inhibition, 48 h
READOUT NAME: TGI

Query: Reported TGI, compound "Cc1cc(=O)oc2c(CN(CCCl)CCCl)c(O)ccc12" : ____
Reply: > 100 µM

Query: Now the same for "N#Cc1nc(-c2ccccn2)c(-c2ccccn2)nc1C#N"
Reply: 28 µM

Go through the items and report each one's TGI.
1. COc1ccc2c(c1)/C(=N/OC(C)=O)c1c-2c(Nc2ccc(/C(C)=N/OC(C)=O)cc2)nc2ccccc12
2. NS(=O)(=O)c1ccc(NS(=O)(=O)c2ccc(NC(=O)N(c3ccccc3)c3ccccc3)cc2)cc1
3. CC1CCCc2c(CC3CC(=O)NC(=O)C3)nc(N)nc21 (centres undefined)
4. S=C1NC2=C(CCOc3c2ccc2ccccc32)C(c2ccc(Cl)cc2)N1 (centres undefined)
5. CC(=O)N1C(=O)/C(=C\C(=O)c2ccc(Cl)cc2)c2ccccc21

Reply:
> 100 µM
> 100 µM
> 100 µM
> 100 µM
> 76.2 µM

Go through the items and report each one's TGI.
1. COC(=O)C12CC(NC(=O)c3csc([C@@H](C[C@H](C(C)C)N(C)C(=O)[C@@H](NC(=O)[C@H]4CCCCN4C)C(C)C)OC(C)=O)n3)(C1)C2
2. Cn1cc(C2=C(c3cn(C)c4cc(Cl)ccc34)C(=O)NC2=O)c2ccccc21

Reply:
1. > 33.3 µM
2. > 25 µM
